Cited source: ChEMBL document CHEMBL1201862

tested on: T47D; assay: NCI tumour cell line growth inhibition, 48 h
Calls of active or inactive are those of the source. No stated cut-off is given here; in the data, active = GI50 up to about 1.1 µM and inactive = higher.
EXPERIMENTAL READOUT: GI50

{"columns": ["STRUCTURE SMILES", "ENDPOINT RESULT"],
 "data": [
  ["N#CC1N(C(=O)c2ccc(F)cc2)c2ccccc2N1C(=O)c1ccc(F)cc1", "27.2 µM (inactive)"],
  ["COc1cc2oc(=O)ccc2cc1C(=O)CC(C)C", "> 100 µM (inactive)"],
  ["N#CCCN(CCC#N)c1ccc(/C=C2\\N=C(c3ccccc3)N(c3ccccn3)C2=O)cc1", "> 100 µM (inactive)"],
  ["CC(C)(C)[C@H]1CCC2(OCCO2)[C@](O)(CCCO)C1", "> 100 µM (inactive)"]
]}

---

system: HL-60; assay: NCI tumour cell line growth inhibition, 48 h
The source made the active and inactive calls. Rule as the data show it: active = GI50 up to about 1.1 µM and inactive = higher.
Labels: active, inactive

{"columns": ["COMPOUND", "LABEL CLASS"],
 "data": [
  ["Clc1cc(Cl)c2n[se]nc2c1", "inactive"],
  ["COc1ccc(NC(=O)CC2SC(Nc3ccc(Cl)cc3C)=NC2=O)c([N+](=O)[O-])c1 (stereo unspecified)", "inactive"],
  ["CC(C)(C)[C@H]1CCC2(OCCO2)[C@](O)(CCCO)C1", "inactive"],
  ["O=c1[nH]c2cc([N+](=O)[O-])c(N(CCO)CCO)c([N+](=O)[O-])c2[nH]1", "inactive"],
  ["COc1cc(-c2c[nH]c3ccccc23)nc(-c2c[nH]c3ccccc23)n1", "inactive"],
  ["C1=CN2C[n+]3cccc(OCc4ccccc4)c3N=C2C(OCc2ccccc2)=C1", "active"],
  ["COC(=O)c1sc2c(c1C(=O)OC)/C(=N/c1ccc(OC)cc1)S/C2=N\\c1ccc(OC)cc1", "active"],
  ["COc1ccc2nc3cc(Cl)ccc3c(NCCCN(CCCl)CCCl)c2c1", "active"],
  ["O=c1[nH]c2nc3ccccc3c(=O)n2/c1=C/c1ccc(O)cc1", "inactive"],
  ["O=C(c1ccc(Cl)cc1)N(C(=S)OC12CC3CC(CC(C3)C1)C2)c1ccccc1", "inactive"],
  ["Cc1ncc([N+](=O)[O-])n1CC(O)Cn1cnc([N+](=O)[O-])n1 (stereo unspecified)", "inactive"],
  ["O=C1C=C[C@@]23CC1C(O)C[C@H]2C=Cc1ccccc13 (stereo partly specified)", "inactive"],
  ["C[C@]12CCC3c4ccc(O)cc4CC[C@H]3C1CC(=O)N(N)C2=O (stereo partly specified)", "inactive"],
  ["CCN(CC)C(=S)Nc1ccc(-c2cc3ccc(O)cc3oc2=O)cc1", "inactive"],
  ["COc1ccc(/C=C/c2cc(O)cc(OC)c2)cc1", "inactive"],
  ["CCOC(=O)Cn1nc2ccc(Nc3c(C)[n+]([O-])c4cc(F)c(OCC)cc4[n+]3[O-])cc2n1", "inactive"],
  ["CC1C[C@H](C)CC(C(O)CC2CC(=O)N(Cc3ccccc3)C(=O)C2)C1O (stereo partly specified)", "inactive"],
  ["CCN(CC)CCNc1ccc2ncn3c4ccc(O)cc4c(=O)c1c23", "active"],
  ["Nc1c(-c2cccc3ccccc23)c2ccc([N+](=O)[O-])cc2c(=O)n1-c1nc2ccccc2s1", "inactive"],
  ["CCOC(=O)C(C)c1nc2cc(N3CCN(C)CC3)c(F)cc2[nH]c1=O (stereo unspecified)", "inactive"],
  ["COC1=C2C[C@H](O)C(C)C[C@@]2(OC)OC1=O (stereo partly specified)", "inactive"]
]}

---

tested on: HCT-116; experiment: NCI tumour cell line growth inhibition, 48 h
Active and inactive are the calls of the source. Rule as the data show it: active = GI50 up to about 1.1 µM and inactive = higher.
GI50 values for the compounds below.

{"columns": ["COMPOUND", "GI50"],
 "data": [
  ["CC(=O)OC1CC2C(C)(C)OC(=O)CC(OC(C)=O)[C@]2(C)C2CCC3(C)C(=CCC3[C@H]3COC(=O)C3)[C@]12C (stereo partly drawn)", "61.5 µM (inactive)"],
  ["COc1ccc(-c2cnoc2-c2ccc(OC)c(OC)c2)cc1OC", "1.26 µM (inactive)"],
  ["COc1cc([C@H]2c3cc4c(cc3[C@H](NCc3ccc(F)cc3)C3COC(=O)[C@H]32)OCO4)cc(OC)c1O (stereo partly drawn)", "7.59 µM (inactive)"]
]}

---

system: M14; assay: NCI tumour cell line growth inhibition, 48 h
Active and inactive are the calls of the source. Rule as the data show it: active = GI50 up to about 1.1 µM and inactive = higher.
EXPERIMENTAL READOUT: GI50

{"columns": ["MOLECULE", "EXPERIMENTAL READOUT", "ENDPOINT RESULT"],
 "data": [
  ["COc1nc(N(C)C)nc2c1[n+](C)cn2C", "GI50", "> 100 µM (inactive)"],
  ["O=C(O)c1cc(CCc2cc(O)ccc2O)ccc1O", "GI50", "> 100 µM (inactive)"],
  ["C=C(NC(=O)C(=C)NC(=O)c1csc(C2=NC3c4csc(n4)C4NC(=O)c5csc(n5)C(C(C)(O)C(C)O)NC(=O)C5CSC(=N5)/C(=C/C)NC(=O)C(C(C)O)NC(=O)c5csc(n5)C3(CC2)NC(=O)C(C)NC(=O)C(=C)NC(=O)C(C)NC(=O)C(C(C)CC)NC2C=Cc3c(C(C)O)cc(nc3C2O)C(=O)OC4C)n1)C(N)=O (stereo not drawn)", "GI50", "1.67 µM (inactive)"],
  ["O=C(O)c1ccccc1/C=N/N=C1NCCN1", "GI50", "> 100 µM (inactive)"],
  ["O=S(=O)(O)c1ccc(/N=N/c2ccc(/N=N/c3c(O)ccc4ccccc34)c(S(=O)(=O)O)c2)cc1", "GI50", "> 100 µM (inactive)"],
  ["O=C(OC1CCC(=C2SCCCS2)[C@H]1C1SCCCS1)c1ccccc1 (stereo partly drawn)", "GI50", "> 100 µM (inactive)"],
  ["Cc1ncc(COP(=O)(O)O)c(C)c1O", "GI50", "> 100 µM (inactive)"],
  ["CCC(C)C1(O)OC2CC3(C)OC(=CC3=O)/C(C)=C\\C3OC(=O)C1(C)C32 (stereo not drawn)", "GI50", "21.1 µM (inactive)"]
]}

---

tested on: OVCAR-3; assay: NCI tumour cell line growth inhibition, 48 h
Active and inactive are the calls of the source. No stated cut-off is given here; in the data, active = GI50 up to about 1.1 µM and inactive = higher.
Measured GI50, listed per entry.

{"columns": ["COMPOUND", "MEASURED ON", "GI50"],
 "data": [
  ["CCCCCCCC(CC(=O)O)OC(=O)CC(CCCCCCC)OC1OC(C)C(O)C(O)C1OC1OC(C)C(O)C(O)C1O (centres undefined)", "OVCAR-3", "> 100 µM (inactive)"],
  ["CN(C)CCN(/C(=N/c1ccccc1)N1CCCC1)c1ccccc1", "OVCAR-3", "37.3 µM (inactive)"],
  ["O=c1[nH]c2ccc(C(F)(F)F)cc2nc1-c1ccccc1", "OVCAR-3", "> 100 µM (inactive)"],
  ["CC1OC(OC2C(OC(=O)[C@@H]3CC(C)(C)C[C@H]4C5=CC[C@@H]6[C@@]7(C)C[C@H](O)[C@H](OC8OC(CO)C(O)C(O)C8O)[C@@](C)(CO)[C@@H]7[C@H](O)C[C@@]6(C)[C@]5(C)CC[C@@]34C)OCC(O)C2O)C(O)C(O)C1O (some centres undefined)", "OVCAR-3", "> 7.5 µM (inactive)"],
  ["CN(O)C(=O)c1cccc(Cl)c1", "OVCAR-3", "> 100 µM (inactive)"],
  ["COc1ccc(CC(N)c2ccc(OC)cc2)cc1 (centres undefined)", "OVCAR-3", "> 100 µM (inactive)"],
  ["CCSc1nc(N2CCOCC2)c2cn[nH]c2n1", "OVCAR-3", "52.1 µM (inactive)"],
  ["COC(=O)C(CCC1CC(OC)N(C(=O)OCc2ccccc2)C1)/N=C/c1ccccc1 (centres undefined)", "OVCAR-3", "36.1 µM (inactive)"],
  ["C/C(=N\\NC(N)=S)C(CN1CCCCC1)C(C1=C(O)c2ccccc2OC1)c1ccccc1 (centres undefined)", "OVCAR-3", "82.4 µM (inactive)"]
]}

---

tested on: A498; experiment: NCI tumour cell line growth inhibition, 48 h
Activity calls are given as the source filed them. No stated cut-off is given here; in the data, active = GI50 up to about 1.1 µM and inactive = higher.
Classes used: True for active, False for inactive

{"columns": ["COMPOUND", "LABEL CLASS"],
 "data": [
  ["O=C1c2cc([N+](=O)[O-])sc2C(=O)c2ccsc21", "False"],
  ["O=C(O)c1cccc2cccc(-c3c4ccc(=O)cc-4oc4cc(O)ccc34)c12", "False"],
  ["O=C(/C=C/c1ccc(Cl)c(Cl)c1)C1CCC(Cl)CC1 (stereo not given)", "False"],
  ["COc1ccc([C@@H]2CC(=O)NCCCNCCCCNCCCN2)cc1", "False"],
  ["CCOC(=O)C1=CCOc2cc(N(C)C)ccc21", "False"],
  ["NP1(Oc2ccc(F)cc2)=NP(N)(Oc2ccc(F)cc2)=NP(Oc2ccc(F)cc2)(Oc2ccc(F)cc2)=N1 (stereo not given)", "True"],
  ["Cc1ccc(C2=Nc3ccccc3SC(c3cccc([N+](=O)[O-])c3)C2)cc1 (stereo not given)", "False"],
  ["C=C1CC[C@@H]2C(C)(C)CCC[C@@]2(C)[C@@H]1Cc1cc(O)ccc1O", "False"],
  ["C[C@H]1CC(=O)C2=CCCC3(SCCCS3)[C@@H]2[C@H]1CO", "False"],
  ["CC1C[C@H](C)CC(C(O)CC2CC(=O)N(Cc3ccccc3)C(=O)C2)C1O (stereo not given in full)", "False"]
]}
